growth inhibition values by entry
- procedure.text: NCI Yeast Anticancer Drug Screen. Data for the rad50 strain (AID 155);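 further: 0% = growth of vehicle-only cultures of the same strain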
- experimental.context: S. cerevisiae rad50 strain growth inhibition; at 50.0 µM; stronger effect = higher value
Compounds without any hit were thinned out: in the full panel of roughly 79,000, 15% have a hit.

molecule	growth inhibition / %
COC1CC(OC(=O)c2ccccc2)C2OC(c3ccccc3)OCC2O1 (stereo not drawn)	42.5
COC1CCC(/C(C#N)=C/c2ccco2)CC1 (stereo not drawn)	61.7
Clc1nnc(Cl)s1	29.1
COC1=CC(=O)C(C#CCOCc2ccccc2)=CC1=O	99.1
COC(=O)c1ccc(OCCC(=O)CCl)cc1	99.5
CC(/C=C/c1ccco1)=N\NC(=S)NCC(C)C	63.5
O=[N+]([O-])c1cc(Br)cc(Br)c1O	61.6
Cc1cc(N2C(=O)CCSC2=S)ccc1Cl	90.9
O=C1CSC(=S)N1/N=C/c1ccc(Cl)c([N+](=O)[O-])c1	63.8
CCCCC1(CC)COC(c2ccccc2OC)OC1 (stereo not drawn)	-28.4
CCCCN(CCCC)C(=O)c1ccc(Cl)cc1Cl	98.5
Clc1ccc(OCC(Cn2ccnc2)c2ccc(Cl)cc2)cc1 (stereo not drawn)	99.8
CC(C)/C=C1\CCOC1=O	36.3
